Reported Bliss excess values follow for various compounds
System: OVCAR-8 (Ovarian Carcinoma)
Assay: Bliss excess, mean over the matrix (fraction); higher = more synergy

{"columns": ["COMPOUND", "Bliss excess"],
 "data": [
  ["CC1(C)CCC(CN2CCN(c3ccc(C(=O)NS(=O)(=O)c4ccc(NCC5CCOCC5)c([N+](=O)[O-])c4)c(Oc4cnc5[nH]ccc5c4)c3)CC2)=C(c2ccc(Cl)cc2)C1 [Venetoclax] + CCN(CCO)CCCOc1ccc2c(Nc3cc(CC(=O)Nc4cccc(F)c4)[nH]n3)ncnc2c1 [AZD2811] (first compound max 1 µM, 7x7, partner max 1 µM)", 0.0431],
  ["COc1nnc2ccc(N3CCC(c4ccc(OCCN5CCN(C)C(=O)[C@H]5C)cc4)CC3)nn12 [AZD5153] + CC1(C)CCC(CN2CCN(c3ccc(C(=O)NS(=O)(=O)c4ccc(NCC5CCOCC5)c([N+](=O)[O-])c4)c(Oc4cnc5[nH]ccc5c4)c3)CC2)=C(c2ccc(Cl)cc2)C1 [Venetoclax] (first compound max 1 µM, 7x7, partner max 1 µM)", 0.0035],
  ["CN(CCO)CC[C@H](CSc1ccccc1)Nc1ccc(S(=O)(=O)NC(=O)c2ccc(N3CCC([C@@H](O)c4ccccc4-c4ccc(Cl)cc4)CC3)cc2)cc1S(=O)(=O)C(F)(F)F [AZD4320] + CN(C)CCCOc1ccc(-c2ccc3ncc4c(c3c2)n(C2CCOCC2)c(=O)n4C)cn1 [AZD0156] (first compound max 1 µM, 7x7, partner max 1 µM)", -0.0434]
]}

---

System: LB771-HNC (Head and Neck Carcinoma)
Assay: Bliss excess, mean over the matrix (fraction); higher = more synergy

{"columns": ["MOLECULE", "TARGET OR TEST SYSTEM", "Bliss excess"],
 "data": [
  ["CN(C)CCCOc1ccc(-c2ccc3ncc4c(c3c2)n(C2CCOCC2)c(=O)n4C)cn1 [AZD0156] + C[C@@H]1COCCN1C2=NC(=NC(=C2)C3(CC3)[S@](=N)(=O)C)C4=C5C=CNC5=NC=C4 [AZD6738] (first compound max 1 µM, 7x7, partner max 10 µM)", "LB771-HNC (Head and Neck Carcinoma)", -0.025],
  ["CC1(C)CCC(CN2CCN(c3ccc(C(=O)NS(=O)(=O)c4ccc(NCC5CCOCC5)c([N+](=O)[O-])c4)c(Oc4cnc5[nH]ccc5c4)c3)CC2)=C(c2ccc(Cl)cc2)C1 [Venetoclax] + Cc1cc2ncnn2cc1Nc1ncc2c(n1)n(C1CCOCC1)c(=O)n2C [AZD7648] (first compound max 1 µM, 7x7, partner max 10 µM)", "LB771-HNC (Head and Neck Carcinoma)", -0.006]
]}

---

Reported combination Emax values follow for various compounds
Tested on: LU-139 (Small Cell Lung Carcinoma)
Test: combination Emax (second highest fraction inhibited in the dose matrix, 72 h); higher = more inhibition; extreme values may be limits of the assay
REPORTED ENDPOINT: combination Emax

{"columns": ["COMPOUND", "TARGET OR TEST SYSTEM", "MEASURED RESULT"],
 "data": [
  ["CCc1c2c(nc3ccc(O)cc13)-c1cc3c(c(=O)n1C2)COC(=O)[C@]3(O)CC [SN-38] + O=C(c1cc(Cc2n[nH]c(=O)c3ccccc23)ccc1F)N1CCN(C(=O)C2CC2)CC1 [Olaparib] (first compound max 0.3 µM, 7x7, partner max 10 µM)", "LU-139 (Small Cell Lung Carcinoma)", 0.767],
  ["CC1(C)CCC(CN2CCN(c3ccc(C(=O)NS(=O)(=O)c4ccc(NCC5CCOCC5)c([N+](=O)[O-])c4)c(Oc4cnc5[nH]ccc5c4)c3)CC2)=C(c2ccc(Cl)cc2)C1 [Venetoclax] + C1CN(CCC1(C(=O)N[C@@H](CCO)C2=CC=C(C=C2)Cl)N)C3=NC=NC4=C3C=CN4 [Capivasertib] (first compound max 1 µM, 7x7, partner max 3 µM)", "LU-139 (Small Cell Lung Carcinoma)", 0.31],
  ["CC1(C)CCC(CN2CCN(c3ccc(C(=O)NS(=O)(=O)c4ccc(NCC5CCOCC5)c([N+](=O)[O-])c4)c(Oc4cnc5[nH]ccc5c4)c3)CC2)=C(c2ccc(Cl)cc2)C1 [Venetoclax] + CCN(CCO)CCCOc1ccc2c(Nc3cc(CC(=O)Nc4cccc(F)c4)[nH]n3)ncnc2c1 [AZD2811] (first compound max 1 µM, 7x7, partner max 1 µM)", "LU-139 (Small Cell Lung Carcinoma)", 0.668]
]}

---

Reported Bliss excess values follow for various molecules
System: OVCAR-8 (Ovarian Carcinoma)
Assay: Bliss excess, mean over the matrix (fraction); higher = more synergy
REPORTED ENDPOINT: Bliss excess

{"columns": ["MOLECULE", "REPORTED ENDPOINT", "MEASURED RESULT"],
 "data": [
  ["COc1cccc(OCCCN)c1-c1cc(Nc2cnc(C#N)cn2)n[nH]1 [Prexasertib] + Cc1cc2ncnn2cc1Nc1ncc2c(n1)n(C1CCOCC1)c(=O)n2C [AZD7648] (first compound max 1 µM, 7x7, partner max 10 µM)", "Bliss excess", 0.0125],
  ["Cc1c2c(nn1C)CSCc1cc(n(C)n1)CSc1cc(c3ccccc3c1)OCCCc1c(C(=O)O)n(C)c3c-2c(Cl)ccc13 [AZD5991] + Cn1cnc2c(F)c(Nc3ccc(Br)cc3Cl)c(C(=O)NOCCO)cc21 [Selumetinib] (first compound max 1 µM, 7x7, partner max 3 µM)", "Bliss excess", 0.0416],
  ["CN(C)CCCOc1ccc(-c2ccc3ncc4c(c3c2)n(C2CCOCC2)c(=O)n4C)cn1 [AZD0156] + CCN(CCO)CCCOc1ccc2c(Nc3cc(CC(=O)Nc4cccc(F)c4)[nH]n3)ncnc2c1 [AZD2811] (first compound max 1 µM, 7x7, partner max 1 µM)", "Bliss excess", 0.0425],
  ["Cc1c2c(nn1C)CSCc1cc(n(C)n1)CSc1cc(c3ccccc3c1)OCCCc1c(C(=O)O)n(C)c3c-2c(Cl)ccc13 [AZD5991] + CN(C)CCCOc1ccc(-c2ccc3ncc4c(c3c2)n(C2CCOCC2)c(=O)n4C)cn1 [AZD0156] (first compound max 1 µM, 7x7, partner max 1 µM)", "Bliss excess", 0.0408]
]}

---

System: RPMI-6666 (Non-Cancerous)
Assay: Bliss excess, mean over the matrix (fraction); higher = more synergy

{"columns": ["COMPOUND", "Bliss excess"],
 "data": [
  ["CN(CCO)CC[C@H](CSc1ccccc1)Nc1ccc(S(=O)(=O)NC(=O)c2ccc(N3CCC([C@@H](O)c4ccccc4-c4ccc(Cl)cc4)CC3)cc2)cc1S(=O)(=O)C(F)(F)F [AZD4320] + C[C@@H]1COCCN1C2=NC(=NC(=C2)C3(CC3)[S@](=N)(=O)C)C4=C5C=CNC5=NC=C4 [AZD6738] (first compound max 1 µM, 7x7, partner max 10 µM)", -0.0271],
  ["CN(CCO)CC[C@H](CSc1ccccc1)Nc1ccc(S(=O)(=O)NC(=O)c2ccc(N3CCC([C@@H](O)c4ccccc4-c4ccc(Cl)cc4)CC3)cc2)cc1S(=O)(=O)C(F)(F)F [AZD4320] + Nc1ccn([C@@H]2O[C@H](CO)[C@@H](O)C2(F)F)c(=O)n1 [Gemcitabine] (first compound max 1 µM, 7x7, partner max 0.3 µM)", -0.0051],
  ["C=CCn1c(=O)c2cnc(Nc3ccc(N4CCN(C)CC4)cc3)nc2n1-c1cccc(C(C)(C)O)n1 [AZD1775] + CCc1c2c(nc3ccc(O)cc13)-c1cc3c(c(=O)n1C2)COC(=O)[C@]3(O)CC [SN-38] (first compound max 1 µM, partner max 0.3 µM)", -0.048]
]}

---

Tested on: SH-4 (Melanoma)
Test: combination Emax (second highest fraction inhibited in the dose matrix, 72 h); higher = more inhibition; extreme values may be limits of the assay

{"columns": ["MOLECULE", "combination Emax"],
 "data": [
  ["NC1(C(=O)N[C@@H](CCO)c2ccc(Cl)cc2)CCN(c2ncnc3[nH]ccc23)CC1 [Capivasertib] + COc1nnc2ccc(N3CCC(c4ccc(OCCN5CCN(C)C(=O)[C@H]5C)cc4)CC3)nn12 [AZD5153] (first compound max 10 µM, 7x7, partner max 1 µM)", 0.775],
  ["C=CCn1c(=O)c2cnc(Nc3ccc(N4CCN(C)CC4)cc3)nc2n1-c1cccc(C(C)(C)O)n1 [AZD1775] + O=C(c1cc(Cc2n[nH]c(=O)c3ccccc23)ccc1F)N1CCN(C(=O)C2CC2)CC1 [Olaparib] (first compound max 1 µM, partner max 10 µM)", 0.492],
  ["CC1(C)CCC(CN2CCN(c3ccc(C(=O)NS(=O)(=O)c4ccc(NCC5CCOCC5)c([N+](=O)[O-])c4)c(Oc4cnc5[nH]ccc5c4)c3)CC2)=C(c2ccc(Cl)cc2)C1 [Venetoclax] + CCN(CCO)CCCOc1ccc2c(Nc3cc(CC(=O)Nc4cccc(F)c4)[nH]n3)ncnc2c1 [AZD2811] (first compound max 1 µM, 7x7, partner max 1 µM)", 0.241],
  ["CS(=O)(=O)CCNCc1ccc(-c2ccc3ncnc(Nc4ccc(OCc5cccc(F)c5)c(Cl)c4)c3c2)o1 [Lapatinib] + Cn1cnc2c(F)c(Nc3ccc(Br)cc3Cl)c(C(=O)NOCCO)cc21 [Selumetinib] (first compound max 10 µM, 7x7, partner max 10 µM)", 0.868]
]}

Data origin: the supplement of paper PMC11061612
